# credit: paper PMC10023787

test_system: bovine carbonic anhydrase II (CAII) (Bos taurus)
Construct: purchased Sigma-Aldrich C7749
Sequence (P00921 whole entry): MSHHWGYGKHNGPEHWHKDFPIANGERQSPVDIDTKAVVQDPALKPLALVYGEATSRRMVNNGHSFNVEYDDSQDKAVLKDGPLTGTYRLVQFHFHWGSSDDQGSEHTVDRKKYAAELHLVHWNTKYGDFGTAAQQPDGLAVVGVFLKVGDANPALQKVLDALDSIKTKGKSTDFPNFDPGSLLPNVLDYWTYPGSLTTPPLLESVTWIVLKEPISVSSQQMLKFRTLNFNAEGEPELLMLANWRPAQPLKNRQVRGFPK
assay_procedure: Carbonic anhydrase II inhibition assay (esterase activity on p-nitrophenyl acetate)
Format: biochemical
cond: 40000 nM compound; source data of Fig. 2c; read-out: Normalized CA II Activity (Mean)
Protocol: CAII inhibition assay was performed to measure the inhibitory effect of re-synthesized CBS-conjugates. The esterase activity of CAII with a chromogenic substrate p-nitrophenyl acetate (pNPA) was measured. The rates of hydrolysis were determined by an increase of absorption at 410 nm after incubating different compounds with CAII. […] The absorption was measured at 37 °C each 10 sec for 15 min using a Beckman Coulter’s Paradigm Detection Platform (Brea, USA). […]
value_kind: remaining activity at 40 µM (%)

Study these solved cases before continuing.
q: Provide only the value of recorded remaining activity at 40 µM for `NS(=O)(=O)c1ccc(NC(=O)COc2ccccc2OCC(=O)NCCNC(=O)/C=C/c2ccc(-c3ccccc3C(F)(F)F)o2)cc1`
a: 15

q: Fill in remaining activity at 40 µM for record `NS(=O)(=O)c1ccc(NC(=O)COCC(=O)NCCNC(=O)/C=C/c2ccc(-c3ccccc3C(F)(F)F)o2)cc1`
a: 19.1

A: NS(=O)(=O)c1ccc(NC(=O)c2ccc(-n3cc(CCC(=O)NCCNC(=O)/C=C/c4ccc(-c5ccccc5C(F)(F)F)o4)nn3)cc2)cc1
B: NS(=O)(=O)c1ccc(NCc2ccc(C(=O)NCCNC(=O)/C=C/c3ccc(-c4ccccc4C(F)(F)F)o3)cc2)cc1
q: Select one: A or B . Criterion: greater recorded remaining activity at 40 µM. Your answer should be the label of the entry you select.
a: A
